assay target: Rap guanine nucleotide exchange factor 4 (Homo sapiens) (UniProt Q8WZA2)
Sequence (Q8WZA2 whole entry, looked up): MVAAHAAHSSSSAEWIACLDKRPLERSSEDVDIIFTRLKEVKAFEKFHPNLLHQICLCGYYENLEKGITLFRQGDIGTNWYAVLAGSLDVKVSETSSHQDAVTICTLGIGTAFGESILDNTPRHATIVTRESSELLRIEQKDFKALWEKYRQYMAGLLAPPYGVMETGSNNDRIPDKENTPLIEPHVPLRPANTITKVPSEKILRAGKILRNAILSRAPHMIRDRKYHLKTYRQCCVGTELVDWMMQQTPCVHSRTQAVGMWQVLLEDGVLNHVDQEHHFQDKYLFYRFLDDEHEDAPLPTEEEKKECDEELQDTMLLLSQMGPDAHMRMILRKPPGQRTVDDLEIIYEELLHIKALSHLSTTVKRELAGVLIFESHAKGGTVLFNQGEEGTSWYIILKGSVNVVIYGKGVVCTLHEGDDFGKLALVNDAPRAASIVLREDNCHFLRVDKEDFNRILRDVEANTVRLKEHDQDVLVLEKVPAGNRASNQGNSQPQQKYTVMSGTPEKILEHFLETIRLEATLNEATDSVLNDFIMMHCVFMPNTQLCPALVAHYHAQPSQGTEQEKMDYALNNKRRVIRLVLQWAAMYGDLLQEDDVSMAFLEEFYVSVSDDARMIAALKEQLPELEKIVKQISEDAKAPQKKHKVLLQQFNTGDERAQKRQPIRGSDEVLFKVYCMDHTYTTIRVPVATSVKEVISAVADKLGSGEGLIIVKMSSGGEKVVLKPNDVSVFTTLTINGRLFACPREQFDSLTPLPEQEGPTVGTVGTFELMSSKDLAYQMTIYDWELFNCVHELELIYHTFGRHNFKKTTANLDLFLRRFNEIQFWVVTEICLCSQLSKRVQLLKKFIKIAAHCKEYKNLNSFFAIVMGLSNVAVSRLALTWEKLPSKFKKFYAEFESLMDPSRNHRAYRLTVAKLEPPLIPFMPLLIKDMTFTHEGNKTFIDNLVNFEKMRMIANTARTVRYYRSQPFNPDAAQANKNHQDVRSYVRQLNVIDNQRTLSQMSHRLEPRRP
test protocol: Confirmatory qHTS for antagonist of cAMP-regulated guanine nucleotide exchange factor 4 (EPAC2) (AID 1645885); also: nearly all actives have a fitted effect of over 25% in size; also: potency is read from the fitted curve at half-maximal effect
measurement parameters: EPAC2 Rap1B-BODIPY-GDP exchange fluorescence, biochemical; series mostly up to 12.7 µM
Inconclusive results are not listed. Activity calls are given as the source filed them. Calls follow the shape of the dose curve; as a rule, active = well fitted inhibition curve with a large enough effect; inconclusive = small, poorly fitted or top-dose-only effect; inactive = no such curve, though single readings can be large or run the other way.
assay readout: Potency

Answered cases to consult:
CN(CC(=O)Nc1cccc(F)c1)C(=O)c1cccc(S(=O)(=O)N2CC3(C)CC2CC(C)(C)C3)c1 (stereo not given) ... inactive
Cc1cc(Br)ccc1-n1[nH]c(C)c(C=Nc2cccc3nsnc23)c1=O ... inactive
C[C@@H]1ON(C)[C@H]2C[C@H]3c4[nH]c5ccc(-c6ccc7c(c6)OCO7)cc5c4CCN3C(=O)[C@@H]12 ... inactive
CCN(CC)CC#CCOC(c1ccccc1)c1ccccc1 ... 37.9 µM (active)
CCOc1ccc2nc3cc(N=Nc4ccc(N)nc4N)ccc3c(N)c2c1 ... inactive

Give me measured Potency, please, for this compound: `CN(CC(=O)Nc1ccc(F)cc1)C(=O)COC(=O)C1CCN(c2ccc(C(F)(F)F)cn2)CC1` inactive

Find the measured Potency of N#CC(c1nc2ccccc2nc1OCCO)S(=O)(=O)c1ccccc1 (stereo not given) and report it. inactive

Report Potency for `CSC1=NSC2=NC(=O)/C(=C\c3coc4ccccc4c3=O)C(=N)N12` 16.9 µM (active)

Using known records, supply Potency for `Cc1cc(CSc2ccc(Cl)cc2)ccc1N` inactive

Specify Potency for `O=C1C=C(NCCc2cc(Br)c(O)c(Br)c2)C(=O)c2ncccc21` and stop. inactive

###

assay target: Rap guanine nucleotide exchange factor 3 (Homo sapiens) (UniProt O95398)
Sequence (O95398 whole entry, looked up): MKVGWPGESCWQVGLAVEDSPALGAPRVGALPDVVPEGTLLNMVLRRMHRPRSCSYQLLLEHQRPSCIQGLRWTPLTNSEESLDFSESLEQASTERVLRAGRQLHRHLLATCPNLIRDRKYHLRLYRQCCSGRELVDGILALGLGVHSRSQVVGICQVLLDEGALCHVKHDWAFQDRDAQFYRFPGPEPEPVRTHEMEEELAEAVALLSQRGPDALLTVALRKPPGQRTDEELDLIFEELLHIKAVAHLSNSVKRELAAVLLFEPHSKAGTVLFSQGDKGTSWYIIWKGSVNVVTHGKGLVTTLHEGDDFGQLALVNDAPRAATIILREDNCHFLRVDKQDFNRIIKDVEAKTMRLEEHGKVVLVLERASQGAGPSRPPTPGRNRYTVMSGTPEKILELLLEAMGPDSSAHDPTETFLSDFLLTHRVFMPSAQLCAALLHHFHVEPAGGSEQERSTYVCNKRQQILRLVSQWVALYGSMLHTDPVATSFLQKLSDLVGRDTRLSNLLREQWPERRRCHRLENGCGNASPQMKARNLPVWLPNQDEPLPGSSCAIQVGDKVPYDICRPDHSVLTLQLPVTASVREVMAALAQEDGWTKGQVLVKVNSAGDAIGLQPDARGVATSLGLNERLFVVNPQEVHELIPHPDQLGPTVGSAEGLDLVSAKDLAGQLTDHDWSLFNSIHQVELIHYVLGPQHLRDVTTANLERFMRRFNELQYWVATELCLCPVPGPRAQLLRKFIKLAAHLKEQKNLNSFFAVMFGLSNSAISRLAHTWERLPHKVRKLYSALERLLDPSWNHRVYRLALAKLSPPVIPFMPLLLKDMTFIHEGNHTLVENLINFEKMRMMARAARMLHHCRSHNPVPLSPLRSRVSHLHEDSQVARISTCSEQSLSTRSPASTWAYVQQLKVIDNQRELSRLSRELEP
test protocol: Confirmatory qHTS for antagonist of cAMP-regulated guanine nucleotide exchange factor 3 (EPAC1) (AID 1645880); also: nearly all actives have a fitted effect of over 55% in size; also: potency is read from the fitted curve at half-maximal effect
measurement parameters: EPAC1 Rap1B-BODIPY-GDP exchange, fluorescence
Records with an inconclusive call do not appear. The source made the active and inactive calls. Calls come from the whole dose curve; as a rule, active = well fitted inhibition curve with a large enough effect; inconclusive = small, poorly fitted or top-dose-only effect; inactive = no such curve, though single readings can be large or run the other way.
assay readout: Potency

# example entries with known answers
CCN(CC(=O)Nc1ccc(NC(C)=O)cc1)C(=O)C1(c2ccc(Cl)cc2)CCC1 ... inactive
COc1cc(/C=C2\COC/C(=C\c3ccc(O)c(OC)c3)C2=O)ccc1O ... 23.9 µM (active)
COc1cccc(C(=O)c2sc3nc(-c4ccccc4)cc(C(F)(F)F)c3c2N)c1 ... inactive
Cc1cnc(C(=O)OCC(=O)Nc2ccc(Oc3ccccc3)cc2)cn1 ... inactive
O=C(Cc1ccc(F)cc1)Nc1ccccc1Sc1ccccc1 ... inactive

Specify the recorded Potency for CCC(=O)N1c2ccc(S(=O)(=O)NCCc3ccc(C)cc3)cc2CC1C (configuration not stated) , system: Rap guanine nucleotide exchange factor 3 (Homo sapiens) (UniProt O95398). inactive

###

assay target: Rap guanine nucleotide exchange factor 3 (Homo sapiens) (UniProt O95398)
test protocol: Confirmatory qHTS for antagonist of cAMP-regulated guanine nucleotide exchange factor 3 (EPAC1) (AID 1645880); also: nearly all actives have a fitted effect of over 55% in size; also: potency is read from the fitted curve at half-maximal effect
measurement parameters: EPAC1 Rap1B-BODIPY-GDP exchange, fluorescence
Inconclusive results are not listed. Active and inactive are the calls of the source. Calls come from the whole dose curve; as a rule, active = well fitted inhibition curve with a large enough effect; inconclusive = small, poorly fitted or top-dose-only effect; inactive = no such curve, though single readings can be large or run the other way.
assay readout: Potency

CCSC1=NSC2=NC(=O)/C(=C\c3coc4ccccc4c3=O)C(=N)N12 ... inactive
CC(C)CC1C(=O)N(Cc2cn(Cc3ccco3)nn2)CCS(=O)(=O)N1Cc1ccc(-c2ccc(F)cc2)cc1 (stereo not drawn) ... 84.9 µM (active)
O=C(c1ccc(CN2CCc3ccccc3C2)cc1)N1CCCCC1 ... inactive
N#Cc1c(-c2cccs2)nc(SCc2ccc(Cl)cc2)[nH]c1=O ... 42.6 µM (active)

State its Potency: COc1ccc(C2CC(=O)Oc3ccc(OC)cc32)cc1 (stereo not drawn) inactive

Determine from records and report Potency for `O=C1/C(=C/c2ccc(O)c(O)c2)SC(=S)N1Nc1ccccc1` 16.9 µM (active)

Look up and report measured Potency for this entry: `Cc1cc(N(C)C)c(C)cc1/C=C/c1ccnc2ccccc12` inactive

Read off the recorded Potency for `Cc1ccc(S(=O)(=O)NCCC(=O)N2CCC(Cc3ccccc3)CC2)cc1` inactive

Provide Potency value for the following molecule: `Cc1ccc(CNC(=O)CN(c2cc(C)cc(C)c2)S(=O)(=O)c2c(C)[nH]c(=O)[nH]c2=O)cc1` inactive

Look up and report measured Potency for this entry: `Cc1cccc(CNC(=O)c2ccc(-c3nc(CS(=O)(=O)c4ccccc4)c(C)o3)cc2)c1` inactive

Write down Potency measured for item `O=[N+]([O-])c1ccc(N(c2ccccc2)c2ccccc2)cc1` inactive

For `CCOc1ccc(CNC(=O)c2ccccc2NC(=O)c2nsc3ccccc23)cc1` , write its Potency. inactive

Specify measured Potency for `CCCN1C(=O)c2cccc3c(N4CCCCC4)ccc(c23)C1=O` . inactive

Give the measured Potency for `O=C(Nc1ccc(-c2nnc(-c3ccco3)o2)cc1)C(c1ccccc1)c1ccccc1` inactive

Answer with the recorded Potency for the molecule listed here: O=C(O)CC1Sc2nc3ccccc3n2C1=O (stereo not drawn) inactive

Fill in reported Potency for this entry: `Cc1nn(C(=O)c2ccco2)c(C)c1Sc1ccccc1` inactive

Recall and state the measured Potency for O=S(=O)(O)c1ccc2c(c1)C(C(Cl)(Cl)Cl)OC(C(Cl)(Cl)Cl)O2 (stereo not drawn) . 31.6 µM (active)

// fetch Potency given entry `CCN(CC)c1ccc2cc(C(C)=O)c(=O)oc2c1` inactive

Annotate the molecule `O=C1c2ccccc2S(=O)(=O)c2cc(N3CCC(C(=O)N4CCCCC4)CC3)ccc21` with its measured Potency. inactive

Return Potency (reported value) for this molecule: `CCOc1cc(/C=C(\C#N)C(=O)Nc2cccc(C(=O)O)c2)cc(Br)c1OC(=O)c1ccc(OC)cc1` 42.6 µM (active)

###

assay target: Lysosomal acid glucosylceramidase (Homo sapiens) (UniProt P04062)
Sequence (P04062 whole entry, looked up): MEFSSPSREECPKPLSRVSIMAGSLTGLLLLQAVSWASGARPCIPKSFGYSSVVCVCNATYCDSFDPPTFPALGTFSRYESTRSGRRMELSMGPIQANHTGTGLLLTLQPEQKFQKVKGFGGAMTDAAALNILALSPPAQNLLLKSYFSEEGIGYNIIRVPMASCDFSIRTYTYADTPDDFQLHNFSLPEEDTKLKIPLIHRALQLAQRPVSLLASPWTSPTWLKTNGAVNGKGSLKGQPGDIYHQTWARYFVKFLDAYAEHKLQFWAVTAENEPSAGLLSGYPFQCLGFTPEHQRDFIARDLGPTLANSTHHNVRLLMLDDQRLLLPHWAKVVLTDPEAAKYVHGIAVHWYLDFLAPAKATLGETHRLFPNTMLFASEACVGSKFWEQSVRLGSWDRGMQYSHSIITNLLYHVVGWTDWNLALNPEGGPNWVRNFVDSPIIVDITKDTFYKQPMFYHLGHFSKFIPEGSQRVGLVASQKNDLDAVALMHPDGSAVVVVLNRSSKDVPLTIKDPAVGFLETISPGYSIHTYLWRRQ
test protocol: Glucocerebrosidase-p2 (AID 348); also: potency is read from the fitted curve at half-maximal effect
measurement parameters: purified GBA, blue fluorogenic substrate, 40 min
Calls of active or inactive are those of the source. Rule as the data show it: active = potency below about 10 µM; inactive = the rest.
Choose the fitting class; nothing outside t for active, f for inactive is accepted.

COc1ccc2[nH]cc(CCNc3ncncc3-c3ccoc3)c2c1 ... f
CN(C)c1nc(-c2ccc3c(c2)OCO3)nc2ccccc12 ... f
O=c1c(-c2ccccc2)nc2cnc(N3CCOCC3)nc2n1CCc1ccccc1 ... f
COc1ccc2[nH]cc(CCNc3ncncc3-c3ccccc3Cl)c2c1 ... f
COc1ccc(CNc2nc(-c3cccnc3)nc3ccccc23)c(OC)c1 ... f

In this assay, the call recorded for `COc1ccc(Oc2ncc3nc(-c4cccc(C#N)c4)c(=O)n(Cc4cccc(OC)c4)c3n2)cc1` was what? f

// return assay outcome for `CN(C)c1ncc2nc(CCc3ccccc3)c(=O)n(Cc3cccs3)c2n1` f

What did this assay record as the result for `COc1ccc(Oc2ncc3nc(C)c(=O)n(Cc4cccs4)c3n2)cc1` ? f

For this compound, state the assay outcome: `Cn1c(=O)c(-c2ccccc2)nc2cnc(N3CCOCC3)nc21` f

Field: outcome | Entry: `COCCn1c(=O)c(-c2cccc(C#N)c2)nc2cnc(OCc3ccccc3)nc21` f

Could you please tell me the result logged for `CN(C)c1ncc2ncc(=O)n(Cc3cccs3)c2n1` in this assay? f

###

test protocol: qHTS assay for environmental chemicals that activate the Aryl hydrocarbon Receptor (AhR) signaling pathway (AID 651777); also: % of control where 0% means no effect; nearly all actives have a fitted effect of over 15% in size
measurement parameters: 1A2-DRE human hepatoma cells, luciferase, 24 h; stronger effect = higher value
Records with an inconclusive call do not appear. Activity calls are given as the source filed them. The call rests on the fitted dose curve; in most records, active means well fitted activation curve with a large enough effect; inconclusive means small, poorly fitted or top-dose-only effect; inactive means flat fitted curve, though single readings scatter.
assay readout: activation

Solved cases (6 shown):
CCC(O)OC(O)CC (stereo not drawn) ... 0.464% (inactive) [middle of 4 runs]
O=C(O)CCCCCCCCC(=O)O ... -2.45% (inactive)
C=CC(C)(CCC=C(C)C)OC(C)=O (stereo not drawn) ... 3.8% (inactive)
O=S(=O)(O)c1ccccc1 ... -0.565% (inactive)
S=C1NC=NC2N=CNC12 (stereo not drawn) ... -2.14% (inactive)
O=C(O[C@@H]1Cc2c(O)cc(O)cc2O[C@@H]1c1cc(O)c(O)c(O)c1)c1cc(O)c(O)c(O)c1 ... -3.33% (inactive)

Fill in reported activation for this entry: NC1=NC(S)C2N=CN=C2N1 (stereo not drawn) -2.51% (inactive)

Input `O=C1CCc2ccccc2O1` , output reported activation. 0.95% (inactive)

###

Measured activity change, negative = inhibition by item
assay target: Guanidinoacetate N-methyltransferase (Homo sapiens) (UniProt Q14353)
test protocol: Confirmatory Screen for Target Class Profiling of Small Molecule Inhibitors of Methyltransferases (AID 1745852); also: % is scaled to controls: 0 for no effect and ±100 for the full control effect
measurement parameters: MTase-Glo luminescence, SAH detection, recombinant enzyme; at 57.3 µM (top of the series) unless noted
Value expressed in %; do not type the unit.

Example molecules with recorded activity change, negative = inhibition:
Cc1cnc(C2CC2)n1C1CCN(S(=O)(=O)c2ccc3c(c2)OCCO3)CC1 ... -2.25
Cc1cnc(C2CCC2)n1C1CCN(C(=O)CCC2CCCC2)CC1 ... -7.84
COc1ccc(NC(=O)CCc2ccnc(N3CCCC3)c2)c(OC)c1 ... -3.43

Now let's try a different one.
Name the recorded activity change, negative = inhibition of the item COC(=O)c1cc2n(n1)CC(C)(C(=O)NC1CCC(C)CC1)N(Cc1ccc(OC)cc1OC)C2=O (stereo not given) in your answer. -7.55
